- target_or_test_system: EZH2 Y641F mutant (PRC2 enzyme) (Homo sapiens (Human), UniProt Q15910, Y641F)
- Sequence (Q15910 whole entry Y641F): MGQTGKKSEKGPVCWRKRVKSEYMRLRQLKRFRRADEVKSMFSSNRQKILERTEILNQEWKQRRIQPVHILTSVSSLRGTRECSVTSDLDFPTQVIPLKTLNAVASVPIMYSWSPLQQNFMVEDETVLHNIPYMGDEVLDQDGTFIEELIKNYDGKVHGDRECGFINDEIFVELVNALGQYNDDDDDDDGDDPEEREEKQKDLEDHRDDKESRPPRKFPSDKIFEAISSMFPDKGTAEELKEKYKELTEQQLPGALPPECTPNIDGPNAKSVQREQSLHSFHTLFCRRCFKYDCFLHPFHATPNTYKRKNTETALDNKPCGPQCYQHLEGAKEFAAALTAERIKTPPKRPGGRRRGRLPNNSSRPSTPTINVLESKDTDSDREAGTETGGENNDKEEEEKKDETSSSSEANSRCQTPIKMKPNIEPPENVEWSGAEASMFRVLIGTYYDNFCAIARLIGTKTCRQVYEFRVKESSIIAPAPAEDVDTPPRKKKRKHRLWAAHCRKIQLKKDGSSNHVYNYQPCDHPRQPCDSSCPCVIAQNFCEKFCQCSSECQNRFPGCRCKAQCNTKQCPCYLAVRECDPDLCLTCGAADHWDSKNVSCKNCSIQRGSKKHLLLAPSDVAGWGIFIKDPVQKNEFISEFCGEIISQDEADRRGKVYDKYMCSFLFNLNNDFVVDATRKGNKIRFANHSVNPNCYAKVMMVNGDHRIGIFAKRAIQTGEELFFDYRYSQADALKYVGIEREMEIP
- Sequence (O75530 whole entry partner): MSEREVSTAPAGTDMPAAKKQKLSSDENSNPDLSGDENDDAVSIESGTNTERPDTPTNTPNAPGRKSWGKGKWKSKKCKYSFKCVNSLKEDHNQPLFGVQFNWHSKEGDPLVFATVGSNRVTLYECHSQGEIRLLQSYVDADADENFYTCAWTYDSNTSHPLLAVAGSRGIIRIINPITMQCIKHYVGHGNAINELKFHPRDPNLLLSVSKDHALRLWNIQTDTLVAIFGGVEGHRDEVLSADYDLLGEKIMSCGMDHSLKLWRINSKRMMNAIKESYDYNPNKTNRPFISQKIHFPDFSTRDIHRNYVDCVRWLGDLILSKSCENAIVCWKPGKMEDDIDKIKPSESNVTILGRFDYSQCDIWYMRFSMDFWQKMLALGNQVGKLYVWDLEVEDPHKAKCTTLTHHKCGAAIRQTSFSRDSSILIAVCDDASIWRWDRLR
- Sequence (Q15022 whole entry partner): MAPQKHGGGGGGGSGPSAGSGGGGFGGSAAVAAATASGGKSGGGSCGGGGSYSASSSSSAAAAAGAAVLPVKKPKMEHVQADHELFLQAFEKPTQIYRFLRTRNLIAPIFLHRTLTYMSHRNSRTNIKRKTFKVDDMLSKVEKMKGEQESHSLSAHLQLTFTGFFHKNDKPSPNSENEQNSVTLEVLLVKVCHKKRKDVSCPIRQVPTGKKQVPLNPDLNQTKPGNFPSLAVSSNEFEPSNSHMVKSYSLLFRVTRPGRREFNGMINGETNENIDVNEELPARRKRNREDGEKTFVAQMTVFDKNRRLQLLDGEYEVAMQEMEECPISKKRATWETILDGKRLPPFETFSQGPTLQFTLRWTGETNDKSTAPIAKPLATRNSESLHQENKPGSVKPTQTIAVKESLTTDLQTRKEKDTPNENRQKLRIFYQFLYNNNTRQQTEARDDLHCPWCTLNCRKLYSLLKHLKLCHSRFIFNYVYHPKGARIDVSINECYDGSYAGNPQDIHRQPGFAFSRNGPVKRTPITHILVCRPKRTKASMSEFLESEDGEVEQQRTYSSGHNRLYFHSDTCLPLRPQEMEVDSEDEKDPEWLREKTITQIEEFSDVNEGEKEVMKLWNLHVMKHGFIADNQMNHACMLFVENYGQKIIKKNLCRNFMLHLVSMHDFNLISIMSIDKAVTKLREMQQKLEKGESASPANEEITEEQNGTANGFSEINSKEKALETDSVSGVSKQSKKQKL
- Sequence (Q09028 whole entry partner): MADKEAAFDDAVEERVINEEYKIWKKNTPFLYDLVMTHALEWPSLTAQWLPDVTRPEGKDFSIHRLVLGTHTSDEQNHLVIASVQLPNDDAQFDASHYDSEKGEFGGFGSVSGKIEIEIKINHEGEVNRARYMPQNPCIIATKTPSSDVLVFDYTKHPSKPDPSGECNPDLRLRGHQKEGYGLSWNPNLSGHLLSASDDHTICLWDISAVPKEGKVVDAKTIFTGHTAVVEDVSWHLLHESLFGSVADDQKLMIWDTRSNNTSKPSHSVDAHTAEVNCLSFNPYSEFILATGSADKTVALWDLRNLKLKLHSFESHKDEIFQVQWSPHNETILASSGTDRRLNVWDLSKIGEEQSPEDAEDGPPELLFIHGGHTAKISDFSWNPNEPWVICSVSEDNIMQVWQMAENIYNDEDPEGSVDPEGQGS
- test: PRC2 enzyme assay on peptide substrate, EZH2 Y641F mutant (H3K27me2 peptide, 3H-SAM Flashplate)
- condition_notes: Y641F mutant PRC2 4 nM
pIC50: −log10 of the molar value. Where a name gives a salt, the structure may show the parent alone.
Label Yes when pIC50 is at or above 7; otherwise label No.

{"compound": "CCN(c1cc(Cl)cc(C(=O)NCc2c(C)cc3nc(C)[nH]n3c2=O)c1C)[C@H]1CC[C@H](N(C)C)CC1 [Compound 9]", "group": "No"}
{"compound": "CCN(c1cc(Cl)cc(C(=O)NCc2c(=O)[nH]n3c(C)cc(C)nc23)c1C)[C@H]1CC[C@H](N(C)C)CC1 [Compound 49]", "group": "No"}
{"compound": "CCN(c1cc(Cl)cc(C(=O)NCc2c(C)[nH][nH]c2=O)c1C)[C@H]1CC[C@H](N(C)C)CC1 [Compound 32, Formate]", "group": "Yes"}
{"compound": "CCc1[nH]n(C)c(=O)c1CNC(=O)c1cc(Cl)cc(N(CC)[C@H]2CC[C@H](N(C)C)CC2)c1C [Compound 38]", "group": "No"}
{"compound": "CCN(c1cc(Cl)cc(C(=O)NCc2c(OC)nn(C)c2C)c1C)[C@H]1CC[C@H](N(C)Cc2cccnc2)CC1 [Compound 66]", "group": "No"}
{"compound": "CCN(c1cc(Cl)cc(C(=O)NCc2c(C)n(C)[nH]c2=O)c1C)[C@H]1CC[C@H](N(C)Cc2cccnc2)CC1 [Compound 67]", "group": "Yes"}
{"compound": "CCn1[nH]c(=O)c(CNC(=O)c2cc(Cl)cc(N(CC)[C@H]3CC[C@H](N(C)Cc4cccc(OC)c4)CC3)c2C)c1C [Compound 63]", "group": "Yes"}
{"compound": "CCN(c1cc(Cl)cc(C(=O)NCc2c(OC)nn3c(C)cc(C)nc23)c1C)[C@H]1CC[C@H](N(C)C)CC1 [Compound 48]", "group": "No"}
{"compound": "CCN(c1cc(Cl)cc(C(=O)NCc2c(SC)n(C)[nH]c2=O)c1C)[C@H]1CC[C@H](N(C)C)CC1 [Compound 31b, Formate]", "group": "No"}
{"compound": "CCN(c1cc(Cl)cc(C(=O)NCc2c(OC)nn(C)c2N2CCCCC2)c1C)[C@H]1CC[C@H](N(C)C)CC1 [Compound 92]", "group": "No"}
{"compound": "CCn1nc(OC)c(CNC(=O)c2cc(Cl)cc(N(CC)[C@H]3CC[C@H](N(C)Cc4ccc(OC)cc4)CC3)c2C)c1C [Compound 70]", "group": "Yes"}
{"compound": "CCN(c1cc(Cl)cc(C(=O)NCc2c(C)nc3cc[nH]n3c2=O)c1C)[C@H]1CC[C@H](N(C)C)CC1 [Compound 8]", "group": "No"}

###

Each entry below carries its reported log10(IC50).
- target_or_test_system: EZH2 Y641F mutant (PRC2 enzyme) (Homo sapiens (Human), UniProt Q15910, Y641F)
- test: PRC2 enzyme assay on peptide substrate, EZH2 Y641F mutant (H3K27me2 peptide, 3H-SAM Flashplate)
- condition_notes: Y641F mutant PRC2 4 nM
measured_endpoint: log10(IC50) (log10 of the value in nM)

{"compound": "CCN(c1cc(Cl)cc(C(=O)NCc2c(C)n(C)n(C)c2=O)c1C)[C@H]1CC[C@H](N(C)C)CC1 [Compound 87]", "target_or_test_system": "EZH2 Y641F mutant (PRC2 enzyme) (Homo sapiens (Human), UniProt Q15910, Y641F)", "assay_value": 2.40}
{"compound": "CCN(c1cc(-c2ccc(OCCOC)cc2)cc(C(=O)NCc2c(C)n(C)[nH]c2=O)c1C)[C@H]1CC[C@H](N(C)CCOC)CC1 [Compound 60]", "target_or_test_system": "EZH2 Y641F mutant (PRC2 enzyme) (Homo sapiens (Human), UniProt Q15910, Y641F)", "assay_value": 2.84}
{"compound": "CCn1nc(OC)c(CNC(=O)c2cc(Cl)cc(N(CC)[C@H]3CC[C@H](N(C)CCOC)CC3)c2C)c1C [Compound 64]", "target_or_test_system": "EZH2 Y641F mutant (PRC2 enzyme) (Homo sapiens (Human), UniProt Q15910, Y641F)", "assay_value": 3.65}
{"compound": "CCN(c1cc(Cl)cc(C(=O)NCc2c(C(C)C)[nH]n(C)c2=O)c1C)[C@H]1CC[C@H](N(C)C)CC1 [Compound 39]", "target_or_test_system": "EZH2 Y641F mutant (PRC2 enzyme) (Homo sapiens (Human), UniProt Q15910, Y641F)", "assay_value": 3.35}
{"compound": "CCN(c1cc(Cl)cc(C(=O)NCc2c(C)nn(C)c2OC)c1C)[C@H]1CC[C@H](N(C)C)CC1 [Compound 91]", "target_or_test_system": "EZH2 Y641F mutant (PRC2 enzyme) (Homo sapiens (Human), UniProt Q15910, Y641F)", "assay_value": 3.07}
{"compound": "CCn1[nH]c(=O)c(CNC(=O)c2cc(Cl)cc(N(CC)[C@H]3CC[C@H](N(C)CCOC)CC3)c2C)c1C [Compound 65]", "target_or_test_system": "EZH2 Y641F mutant (PRC2 enzyme) (Homo sapiens (Human), UniProt Q15910, Y641F)", "assay_value": 2.65}
{"compound": "CCN(c1cc(Cl)cc(C(=O)NCc2c(C(F)(F)F)n(C)n(C)c2=O)c1C)[C@H]1CC[C@H](N(C)C)CC1 [Compound 90]", "target_or_test_system": "EZH2 Y641F mutant (PRC2 enzyme) (Homo sapiens (Human), UniProt Q15910, Y641F)", "assay_value": 2.70}
{"compound": "CCN(c1cc(-c2ccc(OCCOC)cc2)cc(C(=O)NCc2c(C)[nH][nH]c2=O)c1C)[C@H]1CC[C@H](N(C)C)CC1 [Compound 30]", "target_or_test_system": "EZH2 Y641F mutant (PRC2 enzyme) (Homo sapiens (Human), UniProt Q15910, Y641F)", "assay_value": 0.85}
{"compound": "CCN(c1cc(Cl)cc(C(=O)NCc2c(C)[nH]n(C)c2=O)c1C)[C@H]1CC[C@H](N(C)C)CC1 [Compound 34]", "target_or_test_system": "EZH2 Y641F mutant (PRC2 enzyme) (Homo sapiens (Human), UniProt Q15910, Y641F)", "assay_value": 2.04}
{"compound": "CCN(c1cc(Cl)cc(C(=O)NCc2c(OC)nn(C)c2N2CCOCC2)c1C)[C@H]1CC[C@H](N(C)C)CC1 [Compound 82]", "target_or_test_system": "EZH2 Y641F mutant (PRC2 enzyme) (Homo sapiens (Human), UniProt Q15910, Y641F)", "assay_value": 4.43}

###

- System: WSU-DLCL2 cells
- test: Cell proliferation analysis, WSU-DLCL2 (Cell Titer Glo)
- Format: cell-based
- condition_notes: Homo sapiens, WSUDLCL2, 144 h, 6 days incubation, ATP readout
- Excerpt: Cell Proliferation Analysis WSU-DLCL2 suspension cells were purchased from DSMZ (German Collection of Microorganisms and Cell Cultures, Braunschweig, Germany), RPMI/Glutamax Medium, Penicillin-Streptomycin, Heat Inactivated Fetal Bovine Serum were purchased from Life Technologies, Grand Island, N.Y., USA, V-bottom polypropylene 384-well plates were purchased from Greiner Bio-One, Monroe, N.C., USA. […] SpectraMax M5 plate reader was purchased from Molecular Devices LLC, Sunnyvale, Calif., USA. […]
pIC50: −log10 of the molar value. Counter-ions that a name gives are not always drawn.
Recorded pIC50, one value per entry.

{"compound": "CCN(c1cc(Cl)cc(C(=O)NCc2c(C)n(C)[nH]c2=O)c1C)[C@H]1CC[C@H](N(C)Cc2cccc(OC)c2)CC1", "modifier_sign": "=", "pIC50": 5.22}
{"compound": "CCN(c1cc(Cl)cc(C(=O)NCc2c(C)[nH]n(C)c2=O)c1C)[C@H]1CC[C@H](N(C)C)CC1", "modifier_sign": "=", "pIC50": 5.16}
{"compound": "CCn1[nH]c(C)c(CNC(=O)c2cc(Cl)cc(N(CC)[C@H]3CC[C@H](N(C)C)CC3)c2C)c1=O", "modifier_sign": "<", "pIC50": 4.70}
{"compound": "CCN(c1cc(-c2ccc(OCCOC)cc2)cc(C(=O)NCc2c(C)[nH]n(C)c2=O)c1C)[C@H]1CC[C@H](N(C)C)CC1", "modifier_sign": "<", "pIC50": 4.70}
{"compound": "CCN(c1cc(-c2ccc(OCCOC)cc2)cc(C(=O)NCc2c(C)n(C)[nH]c2=O)c1C)[C@H]1CC[C@H](N(C)C)CC1", "modifier_sign": "<", "pIC50": 4.70}
{"compound": "CCc1[nH]n(C)c(=O)c1CNC(=O)c1cc(Cl)cc(N(CC)[C@H]2CC[C@H](N(C)C)CC2)c1C", "modifier_sign": "<", "pIC50": 4.70}
{"compound": "CCn1[nH]c(=O)c(CNC(=O)c2cc(Cl)cc(N(CC)[C@H]3CC[C@H](N(C)C)CC3)c2C)c1C", "modifier_sign": "=", "pIC50": 5.13}
{"compound": "CCN(c1cc(-c2ccc(OCCOC)cc2)cc(C(=O)NCc2c(C)n(C)[nH]c2=O)c1C)[C@H]1CC[C@H](N(C)CCOC)CC1", "modifier_sign": "=", "pIC50": 4.87}
{"compound": "CCCN(c1cc(-c2ccc(OCCOC)cc2)cc(C(=O)NCc2c(C)n(C)[nH]c2=O)c1C)[C@H]1CC[C@H](N(C)C)CC1", "modifier_sign": "=", "pIC50": 4.85}
{"compound": "CCN(c1cc(Cl)cc(C(=O)NCc2c(=O)[nH]n3cccnc23)c1C)[C@H]1CC[C@H](N(C)C)CC1", "modifier_sign": "<", "pIC50": 4.70}
{"compound": "CCN(c1cc(Cl)cc(C(=O)NCc2c(CCN(C)C)cc3n(c2=O)NCC3)c1C)[C@H]1CC[C@H](N(C)C)CC1", "modifier_sign": "=", "pIC50": 6.07}
{"compound": "CCn1nc(OC)c(CNC(=O)c2cc(Cl)cc(N(CC)[C@H]3CC[C@H](N(C)Cc4ccc(OC)cc4)CC3)c2C)c1C", "modifier_sign": "=", "pIC50": 5.44}
{"compound": "CCN(c1cc(Cl)cc(C(=O)NCc2c(N3CCCC3)n(C)[nH]c2=O)c1C)[C@H]1CC[C@H](N(C)C)CC1", "modifier_sign": "=", "pIC50": 5.90}
{"compound": "CCOc1n[nH]c(C)c1CNC(=O)c1cc(Cl)cc(N(CC)[C@H]2CC[C@H](N(C)C)CC2)c1C", "modifier_sign": "=", "pIC50": 5.19}
{"compound": "CCn1[nH]c(=O)c(CNC(=O)c2cc(Cl)cc(N(CC)[C@H]3CC[C@H](N(C)Cc4cccc(OC)c4)CC3)c2C)c1C", "modifier_sign": "=", "pIC50": 5.81}
{"compound": "CCN(c1cc(Cl)cc(C(=O)NCc2c(OC)n(C)[nH]c2=O)c1C)[C@H]1CC[C@H](N(C)C)CC1", "modifier_sign": "=", "pIC50": 5.95}
{"compound": "CCN(c1cc(Cl)cc(C(=O)NCc2c(C)[nH][nH]c2=O)c1C)[C@H]1CC[C@H](N(C)C)CC1 [Compound 32, Formate]", "modifier_sign": "=", "pIC50": 4.94}
{"compound": "CCN(c1cc(Cl)cc(C(=O)NCc2c(C)[nH]n(C)c2=O)c1C)[C@@H]1COC[C@H]1OC (relative stereo)", "modifier_sign": "<", "pIC50": 4.70}
{"compound": "CCN(c1cc(Cl)cc(C(=O)NCc2c(C)n(C)[nH]c2=O)c1C)[C@H]1CC[C@H](N(C)Cc2ccc(OC)cc2)CC1", "modifier_sign": "=", "pIC50": 4.97}
